Assay: Study 2: plasma concentration, HPLC
Type: in vivo, human
Conditions: human, plasma, po, 2 mg, 2 mg tablet, 6.00 h
endpoint name: concentration at 6 h (ng/mL)
One number for each entry, in ng/mL.

Which value of concentration at 6 h has been reported for CCOc1cc(CC(=O)NC(CC(C)C)c2ccccc2N2CCCCC2)ccc1C(=O)O (racemic) in the records? 9.5

----------
Assay: clinical
Conditions: human, plasma, iv, 1 mg
endpoint name: concentration at 2.5 h (ng/mL)
Answers are plain numbers, in ng/mL.

Which value of concentration at 2.5 h has been reported for CCOc1cc(CC(=O)NC(CC(C)C)c2ccccc2N2CCCCC2)ccc1C(=O)O (racemic) in the records? 17.6

----------
Assay: Study 1: plasma concentration, non-stereoselective HPLC
Format: in vivo, human
Details: human, plasma, po, 2 mg, 2 mg capsule, 1.50 h
endpoint name: concentration at 1.5 h (ng/mL)
Give bare numbers, in ng/mL.

Which value of concentration at 1.5 h has been reported for CCOc1cc(CC(=O)NC(CC(C)C)c2ccccc2N2CCCCC2)ccc1C(=O)O (racemic) in the records? 64.7

----------
Assay: Study 3: plasma concentration of active substance, single test subject
Type: in vivo, human
Conditions: human, plasma, po; 2 mg, 1.75 h
So I've got a bunch of compounds here, and I need their concentration at 1.75 h values.
One number for each entry, in ng/mL.

CCOc1cc(CC(=O)NC(CC(C)C)c2ccccc2N2CCCCC2)ccc1C(=O)O (racemic)	82

// next entry
Which value of concentration at 1.75 h has been reported for CCOc1cc(CC(=O)N[C@@H](CC(C)C)c2ccccc2N2CCCCC2)ccc1C(=O)O in the records? 24

----------
Assay: Study 1: plasma concentration, non-stereoselective HPLC
Type: in vivo, human
Details: human, plasma, po, 2 mg, 2 mg capsule, 8.00 h
endpoint name: concentration at 8 h (ng/mL)
Answers are plain numbers, in ng/mL.

Which value of concentration at 8 h has been reported for CCOc1cc(CC(=O)NC(CC(C)C)c2ccccc2N2CCCCC2)ccc1C(=O)O (racemic) in the records? 1.2

----------
Test: clinical
Details: human, plasma, po, 1 mg
endpoint name: concentration at 0.75 h (ng/mL)
Numbers only, in ng/mL.

Which value of concentration at 0.75 h has been reported for CCOc1cc(CC(=O)N[C@@H](CC(C)C)c2ccccc2N2CCCCC2)ccc1C(=O)O in the records? 24.2

----------
Experiment: Study 2: plasma concentration, HPLC
Format: in vivo, human
Details: human, plasma, po, 2 mg, 2 mg capsule, 6.00 h
Description: Blood samples were taken at various times.
endpoint name: concentration at 6 h (ng/mL)
One number for each entry, in ng/mL.

Which value of concentration at 6 h has been reported for CCOc1cc(CC(=O)NC(CC(C)C)c2ccccc2N2CCCCC2)ccc1C(=O)O (racemic) [AG-EE 388 ZW] in the records? 7.8

----------
Experiment: clinical
Conditions: human, plasma, po, 0.5 mg
endpoint name: concentration at 3 h (ng/mL)
One number for each entry, in ng/mL.

Which value of concentration at 3 h has been reported for CCOc1cc(CC(=O)N[C@@H](CC(C)C)c2ccccc2N2CCCCC2)ccc1C(=O)O in the records? 0.3

----------
Test: Study 1: plasma concentration, non-stereoselective HPLC
Assay type: in vivo, human
Settings: human, plasma, po, 2 mg, 2 mg capsule, 1.00 h
endpoint name: concentration at 1 h

Which value of concentration at 1 h has been reported for CCOc1cc(CC(=O)NC(CC(C)C)c2ccccc2N2CCCCC2)ccc1C(=O)O (racemic) [AG-EE 388 ZW] in the records? 82.8 ng/mL

----------
Assay: Study 1: plasma concentration, non-stereoselective HPLC
Format: in vivo, human
Conditions: human, plasma, po, 2 mg, 2 mg capsule, 0.75 h
endpoint name: concentration at 0.75 h (ng/mL)
Numbers only, in ng/mL.

Which value of concentration at 0.75 h has been reported for CCOc1cc(CC(=O)NC(CC(C)C)c2ccccc2N2CCCCC2)ccc1C(=O)O (racemic) in the records? 82.9

----------
Assay: clinical
Settings: human, plasma, iv, 1 mg
endpoint name: concentration at 3 h (µg/mL)
One number for each entry, in µg/mL.

Which value of concentration at 3 h has been reported for CCOc1cc(CC(=O)NC(CC(C)C)c2ccccc2N2CCCCC2)ccc1C(=O)O (racemic) in the records? 0.0135

----------
Assay: clinical
Settings: human, plasma, po, 1 mg
endpoint name: concentration at 0.75 h (ng/mL)
Give bare numbers, in ng/mL.

Which value of concentration at 0.75 h has been reported for CCOc1cc(CC(=O)NC(CC(C)C)c2ccccc2N2CCCCC2)ccc1C(=O)O (racemic) [AG-EE 388 ZW] in the records? 40.2

----------
Experiment: clinical
Conditions: human, plasma, po, 0.5 mg
endpoint name: concentration at 2.09 h (ng/mL)
Numbers only, in ng/mL.

Which value of concentration at 2.09 h has been reported for CCOc1cc(CC(=O)N[C@@H](CC(C)C)c2ccccc2N2CCCCC2)ccc1C(=O)O in the records? 1.2

----------
Assay: Study 2: plasma concentration, HPLC
Format: in vivo, human
Settings: human, plasma, po, 2 mg, 2 mg capsule, 1.00 h
endpoint name: concentration at 1 h (ng/mL)
Answers are plain numbers, in ng/mL.

Which value of concentration at 1 h has been reported for CCOc1cc(CC(=O)NC(CC(C)C)c2ccccc2N2CCCCC2)ccc1C(=O)O (racemic) [AG-EE 388 ZW] in the records? 73.7

----------
Assay: clinical
Settings: human, plasma, iv, 1 mg
endpoint name: concentration at 0.25 h

Which value of concentration at 0.25 h has been reported for CCOc1cc(CC(=O)NC(CC(C)C)c2ccccc2N2CCCCC2)ccc1C(=O)O (racemic) in the records? 0.104 µg/mL

----------
Assay: Study 3: plasma concentration of active substance, single test subject
Type: in vivo, human
Details: human, plasma, po; 4 mg, 3.50 h
endpoint name: concentration at 3.5 h (ng/mL)
Give bare numbers, in ng/mL.

Which value of concentration at 3.5 h has been reported for CCOc1cc(CC(=O)NC(CC(C)C)c2ccccc2N2CCCCC2)ccc1C(=O)O (racemic) [AG-EE 388 ZW] in the records? 84

----------
Assay: clinical
Settings: human, plasma, po, 0.5 mg
endpoint name: concentration at 0.75 h (ng/mL)
One number for each entry, in ng/mL.

Which value of concentration at 0.75 h has been reported for CCOc1cc(CC(=O)N[C@@H](CC(C)C)c2ccccc2N2CCCCC2)ccc1C(=O)O in the records? 1.6

----------
Assay: clinical
Conditions: human, plasma, iv, 1 mg
endpoint name: concentration at 9 h (ng/mL)
One number for each entry, in ng/mL.

Which value of concentration at 9 h has been reported for CCOc1cc(CC(=O)NC(CC(C)C)c2ccccc2N2CCCCC2)ccc1C(=O)O (racemic) in the records? 1.5

----------
Assay: clinical
Details: human, plasma, po, 0.5 mg
endpoint name: MRT (min)
Give bare numbers, in min.

Which value of MRT has been reported for CCOc1cc(CC(=O)N[C@@H](CC(C)C)c2ccccc2N2CCCCC2)ccc1C(=O)O in the records? 54

----------
Experiment: Study 1: plasma concentration, non-stereoselective HPLC
Assay type: in vivo, human
Details: human, plasma, po; 2 mg capsule p.o.; read-out: Maximum concentration
endpoint name: Cmax (ng/mL)
Numbers only, in ng/mL.

Which value of Cmax has been reported for CCOc1cc(CC(=O)NC(CC(C)C)c2ccccc2N2CCCCC2)ccc1C(=O)O (racemic) in the records? 83

----------
Assay: Study 1: plasma concentration, non-stereoselective HPLC
Type: in vivo, human
Conditions: human, plasma, po, 2 mg, 2 mg capsule, 2.00 h
endpoint name: concentration at 2 h (ng/mL)
One number for each entry, in ng/mL.

Which value of concentration at 2 h has been reported for CCOc1cc(CC(=O)NC(CC(C)C)c2ccccc2N2CCCCC2)ccc1C(=O)O (racemic) [AG-EE 388 ZW] in the records? 58.3

----------
Assay: clinical
Conditions: human, plasma, iv, 1 mg
endpoint name: concentration at 0.08 h (ng/mL)
Give bare numbers, in ng/mL.

Which value of concentration at 0.08 h has been reported for CCOc1cc(CC(=O)NC(CC(C)C)c2ccccc2N2CCCCC2)ccc1C(=O)O (racemic) [AG-EE 388 ZW] in the records? 33.3

----------
Test system: blood glucose
Test: Test for hypoglycemic activity in fasted female rats (oral)
Assay type: in vivo
Details: Rattus norvegicus, po; 1 mg/kg, 3 h; read-out: Change in glucose content compared with control
So I've got a bunch of compounds here, and I need their change in vivo at 1 mg/kg values.
One number for each entry, in %.

Solved entries:
CCCC(NC(=O)Cc1ccc(C(=O)O)c(OCC)c1)c1ccccc1N1CCCCC1 (centres unmarked)	-38
CCOc1cc(CC(=O)NC(C(=O)OC)c2ccccc2N2CCCCC2)ccc1C(=O)O (centres unmarked)	-28
CCOc1cc(CC(=O)NC(C)c2ccccc2N2CCCCC2)ccc1C(=O)O (centres unmarked)	-40
CCOc1cc(CC(=O)NC(c2ccccc2)c2ccccc2N2CCCCC2)ccc1CC#N (centres unmarked)	-14

Which value of change in vivo at 1 mg/kg has been reported for CCCC(NC(=O)Cc1ccc(CC#N)c(OCC)c1)c1ccccc1N1CCCCC1 (centres unmarked) in the records? -35
